- test: PSAC antagonists in infected red cells, primary screen, cell-based, P. falciparum Indochina, OD700, 2 h (AID 1155);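 further: lysis reports solute entry through the parasite surface anion channel PSAC; channel blockers reduce lysis of infected cells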
- assay_context: P. falciparum Indochina infected erythrocytes, osmotic lysis OD700; higher = more signal, called active from +8 up or from −8 down
assay_readout: z-score
# print the numeric value only

Illustrative cases are given below, each with its answer.
- compound: "CC(C)c1ccc(NN2C(C(O)c3ccccc3)C=CC3C(=O)N(c4ccccc4)C(=O)C32)cc1 (stereo not drawn)"
  z-score: 1.97
- compound: "CO[C@H]1O[C@H](CO)[C@@H](OC(=O)Nc2cccc(F)c2)[C@H](OC(=O)Nc2ccc3c(c2)OCO3)[C@@H]1OC(=O)Nc1ccc2c(c1)OCO2"
  z-score: 2.05

Looking for the measured z-score of `C=CCNC(=O)[C@@H]1[C@H]2C(=O)O[C@H](c3ccccc3)[C@H](c3ccccc3)N2[C@H](c2ccc(OCCO)cc2)[C@@]12C(=O)Nc1ccc(C#CC3=CCCCC3)cc12` , can you help?
1.98

---

- Tested on: Fibrinogen (Alexa647-labelled)
- test: fibrinogen binders on compound microarrays, profiling panel, artefact control for SMM control-protein annotation, biochemical, small-molecule microarray, 635/667 nm fluorescence (AID 1131);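 further: z-score merges 667 nm fluorescence with per-spot signal-to-noise over triplicate slides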
- assay_context: fibrinogen-A647 binding fluorescence, higher = more signal
assay_readout: composite z-score
# answer = number (no unit)

See these solved cases before continuing.
- compound: "CC(C)(C)OC(=O)CC[C@]1(C(N)=O)N=C(c2ccc(OCCCO)cc2)O[C@H]1c1ccccc1N=[N+]=[N-]"
  measurement_target: "Fibrinogen (Alexa647-labelled)"
  assay_readout: "composite z-score"
  quantitative_readout: 0.746
- compound: "[N-]=[N+]=NCc1ccccc1[C@H]1OC(c2ccc(OCCCO)cc2)=N[C@@]1(CCS(=O)(=O)c1ccccc1)C(=O)NCCN1CCOCC1"
  measurement_target: "Fibrinogen (Alexa647-labelled)"
  assay_readout: "composite z-score"
  quantitative_readout: 1.04
- compound: "[N-]=[N+]=NCc1ccccc1[C@H]1OC(c2ccc(OCCCO)cc2)=N[C@@]1(CCS(=O)(=O)c1ccccc1)C(=O)O"
  measurement_target: "Fibrinogen (Alexa647-labelled)"
  assay_readout: "composite z-score"
  quantitative_readout: 1.03
- compound: "COC(=O)[C@@]1(Cc2ccccc2)[C@H]2c3cc(C(=O)N(C)C)n(Cc4ccc(Cl)c(C(F)(F)F)c4)c3C[C@H]2CN1C(=O)c1ccccc1"
  measurement_target: "Fibrinogen (Alexa647-labelled)"
  assay_readout: "composite z-score"
  quantitative_readout: 0.93
- compound: "[N-]=[N+]=Nc1ccccc1C[C@]1(C(=O)N2CCCCC2)N=C(c2ccc(OCCCO)cc2)O[C@H]1c1ccccc1"
  measurement_target: "Fibrinogen (Alexa647-labelled)"
  assay_readout: "composite z-score"
  quantitative_readout: 0.934
- compound: "C=CC[C@]1(C(=O)NCC(O)CO)N=C(c2ccc(OCCCO)cc2)O[C@H]1c1ccccc1CN=[N+]=[N-] (some centres not stated)"
  measurement_target: "Fibrinogen (Alexa647-labelled)"
  assay_readout: "composite z-score"
  quantitative_readout: -0.204

Lab note: next compound to report on.
Quick one: composite z-score of CCCCN1CC=CC23O[C@@H]4C=CCCOC(=O)C4[C@H]2C(=O)N(CCO)[C@@H]3C1=O (some centres not stated) ?
0.213

---

- test: COS7 lysate on small-molecule microarray, probe aHis, 635 nm (AID 1123);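 further: z-score combines 667nm fluorescence intensity with signal-to-noise per printed compound spot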
- assay_context: COS7 cell lysate, fluorescence, higher = more signal
Property: composite z-score; scope: individual compounds
Just the number, please, no unit attached.

Worked cases, composite z-score given:
- compound: "Cc1ccc(S(=O)(=O)N2[C@@H](c3ccccc3)C(C(=O)O)=C[C@H]2C(C)(C)C)cc1"
  composite z-score: 2.82
- compound: "COCCOC(=O)N1C(=O)[C@@]2(c3cc(C#CCNC(N)=O)ccc31)[C@H](C(=O)Nc1nc3ccccc3s1)[C@H]1C(=O)O[C@H](c3ccccc3)[C@H](c3ccccc3)N1[C@@H]2c1ccc(O)cc1"
  composite z-score: 0.734
- compound: "CC(C)c1ccc(NN2C(C(O)C(C)c3ccccc3)C=CC3C(=O)N(c4ccccc4)C(=O)C32)cc1 (stereo unspecified)"
  composite z-score: 3.34

Endpoint output: composite z-score of `CC(C)C[C@@H]1NC(=O)[C@@H]2C[C@H](C(=O)NCCCCCNC(=O)CS)[C@H](c3ccc(O)cc3)N2C1=O` . Value?
2.1

GET /values?readout=composite z-score&item= CN1C(=O)C2C=CC(C(O)c3ccc(I)cc3)N(N(c3ccccc3)c3ccccc3)C2C1=O (stereo unspecified)
0.307

Would you kindly share the measured composite z-score for `O=C1N(Cc2ccccc2)Cc2ccccc2C[C@@]12COC(c1ccc(OCCCO)cc1)=N2` ?
2.08

---

- measurement_target: Follistatin (Homo sapiens) (UniProt P19883)
- Sequence (P19883 whole entry, looked up): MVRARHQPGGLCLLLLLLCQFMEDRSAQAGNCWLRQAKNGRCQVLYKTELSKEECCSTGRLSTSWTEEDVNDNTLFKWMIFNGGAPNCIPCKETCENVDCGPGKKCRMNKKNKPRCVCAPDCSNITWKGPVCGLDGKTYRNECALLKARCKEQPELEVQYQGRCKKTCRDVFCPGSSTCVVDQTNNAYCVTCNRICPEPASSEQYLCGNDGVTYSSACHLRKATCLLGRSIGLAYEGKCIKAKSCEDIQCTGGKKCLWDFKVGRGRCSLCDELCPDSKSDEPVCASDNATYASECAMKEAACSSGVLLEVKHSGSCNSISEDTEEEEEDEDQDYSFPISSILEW
- test: follistatin binders on small-molecule microarrays, primary screen, biochemical, small-molecule microarray, 635/667 nm fluorescence (AID 1132)
- assay_context: FST binding, 635 nm fluorescence, higher = more signal
assay_readout: composite z-score

The cases that follow already have their composite z-score on record.
- compound: "COc1ccc(NN2C(C(O)c3ccc(F)cc3)C=CC3C(=O)N(C4CCCCC4)C(=O)C32)cc1 (stereo not given)"
  composite z-score: 1.15
- compound: "C=CCNC(=O)[C@@H]1[C@H]2C(=O)O[C@H](c3ccccc3)[C@H](c3ccccc3)N2[C@H](c2ccc(OCCO)cc2)[C@@]12C(=O)N(C(=O)OCCOC)c1ccccc12"
  composite z-score: 1.29
- compound: "COCCOC(=O)N1C(=O)[C@@]2(c3cc(C#CCC(C(=O)OC)C(=O)OC)ccc31)[C@H](C(N)=O)[C@H]1C(=O)O[C@H](c3ccccc3)[C@H](c3ccccc3)N1[C@@H]2c1ccccc1OCCO"
  composite z-score: 1.32

Given the compound `C=C[C@H](C)[C@@H](OC(=O)Nc1ccc(SC)cc1)c1ccc(OCCO)cc1` , what is its reported composite z-score?
0.629

---

- measurement_target: NADPH oxidase 2 (Homo sapiens) (UniProt P04839)
- Sequence (P04839 whole entry, looked up): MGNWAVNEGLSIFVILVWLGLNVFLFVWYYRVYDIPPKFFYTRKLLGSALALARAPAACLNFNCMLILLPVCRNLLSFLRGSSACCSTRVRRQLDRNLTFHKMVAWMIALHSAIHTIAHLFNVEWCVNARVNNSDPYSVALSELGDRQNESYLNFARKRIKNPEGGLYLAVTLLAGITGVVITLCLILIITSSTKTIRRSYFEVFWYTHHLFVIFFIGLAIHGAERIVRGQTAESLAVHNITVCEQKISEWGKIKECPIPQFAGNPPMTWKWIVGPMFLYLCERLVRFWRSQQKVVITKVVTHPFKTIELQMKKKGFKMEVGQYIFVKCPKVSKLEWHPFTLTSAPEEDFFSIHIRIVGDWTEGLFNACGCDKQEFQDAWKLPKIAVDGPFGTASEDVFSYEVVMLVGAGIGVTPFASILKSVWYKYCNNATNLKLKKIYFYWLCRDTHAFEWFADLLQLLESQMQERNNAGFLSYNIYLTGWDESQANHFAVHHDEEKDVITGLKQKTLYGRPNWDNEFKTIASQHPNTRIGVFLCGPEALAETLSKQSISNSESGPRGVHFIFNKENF
- test: NOX2-dependent H2O2 signal modulators, primary screen, NOX inhibitor project, cell-based, HEK293-NOX2, PMA-stimulated, Amplex Red fluorescence (AID 1159); further: test concentration not given here
- assay_context: 45 min, higher = more signal, called active from +8 up or from −8 down
Quick reference: z-score of the listed items.
Please reply with the value in numeric form only.

- compound: "C=CCOC(=O)[C@H]1[C@@H]2C(=O)O[C@@H](c3ccccc3)[C@@H](c3ccccc3)N2[C@@H](c2ccc(OCCOC(=O)[C@H]3C[C@H]4C(=O)NCC(=O)N4[C@H]3c3cccc(OCCO)c3)cc2)[C@]12C(=O)Nc1ccc(I)cc12"
  z-score: 1.71
- compound: "CCOC(=O)C1=CCC(c2cccn2C(=O)OC(C)(C)C)N(S(=O)(=O)c2ccc(C)cc2)C1 (stereo unspecified)"
  z-score: -0.035
- compound: "COC(=O)[C@]1(Cc2ccccc2N=[N+]=[N-])N=C(c2ccc(OCCCO)cc2)O[C@@H]1c1ccccc1CN=[N+]=[N-]"
  z-score: -2.97

Record request: z-score value, item `Cc1ccc(N2C(=O)c3ccccc3[C@@H](C(=O)NCCN3CCOCC3)[C@@H]2c2ccc(CO)cc2)nc1`
0.335

// lookup z-score for `CN(C)CCCCCCNC(=O)[C@@H]1C[C@@H]2C(=O)N[C@@H](CCCC[N+](C)(C)C)C(=O)N2[C@@H]1c1cccc(OCCO)c1`
-0.0444

Need z-score of `C=C1C(=O)C=C2CN(C(=O)c3ccccc3)[C@@](Cc3ccc(F)cc3)(C(=O)OC)[C@@H]12` , thanks.
-3.94

---

- test: binders of probe aHhip on microarray, primary screen, stem cell growth factor project, biochemical, small-molecule microarray, fluorescence 635/667 (AID 1087);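 further: score merges spot fluorescence at 667nm with spot signal to noise ratio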
- assay_context: higher = more signal
Entries and their composite z-score values follow.

Record excerpt, results attached:
- compound: "C=C(C(=O)CC[C@@H](OC(=O)c1cccnc1)c1cccc(OCCO)c1)C(C)C"
  assay_readout: "composite z-score"
  result: -0.236
- compound: "CCOC(=O)C1=CCC(c2cccn2C(=O)OC(C)(C)C)N(S(=O)(=O)c2ccc(C)cc2)C1 (configuration not stated)"
  assay_readout: "composite z-score"
  result: 1.07

# composite z-score lookup, item `COCCOC(=O)N1C(=O)[C@@]2(c3ccccc31)[C@H](C(=O)Nc1nc3ccccc3s1)[C@H]1C(=O)O[C@H](c3ccccc3)[C@H](c3ccccc3)N1[C@@H]2c1ccccc1OCCO`
0.157

So what does the record say about composite z-score for `COCCCNC(=O)[C@@]1(CCC(=O)OC(C)(C)C)N=C(c2ccc(OCCCO)cc2)O[C@H]1c1ccccc1` ?
0.0424

Fill blank: measured composite z-score of the compound `COC(=O)C(CC#Cc1ccc2c(c1)[C@]1(C(=O)N2)[C@H](C(N)=O)[C@H]2C(=O)O[C@H](c3ccccc3)[C@H](c3ccccc3)N2[C@@H]1c1ccccc1OCCO)C(=O)OC` is ____.
-0.0994

Can you look up the measured composite z-score of `CCCCCCc1nc(-c2ccc(OC)nc2)c(C)c2c1[Si](C(C)C)(C(C)C)OC2` for me?
-0.0994

Dear colleague, I am looking for the recorded composite z-score of the following compound: C=C(C)C1CN([C@H](CO)c2ccccc2)C(=O)/C1=C\c1ccccc1 (some centres not stated)
-0.174
